Numbers sourced from PubChem BioAssay AID2252.

Listed molecules paired with reported pEC50
Tested on: THP-1 viability, CellTiter-Glo luminescence, 72 h
Assay: PubChem AID 2252
pEC50: −log10 of the molar value.

# example entries with known answers
{"molecule": "O=C(CN1CC(c2ccccc2)CC1=O)N/N=C/c1cc(Br)ccc1O (centres undefined)", "pEC50": 5.41}
{"molecule": "O=C(CCl)Nc1nccs1", "pEC50": 4.84}
{"molecule": "Cc1nc2c(=O)n(C)c(=O)nc-2n(C)n1", "pEC50": 5.66}
{"molecule": "C#CCOCCOCCOCCNc1nc(N2CCN(C(=O)CCCCCCCCCCNC(=O)[C@H]([C@@H](C)CC)n3cc(CCCCCN)nn3)CC2)nc(N2CCN(C(=O)CCCCCCCCCCNC(=O)[C@@H]([C@H](C)O)n3cc(C)nn3)CC2)n1", "pEC50": 4.89}
{"molecule": "CO[C@H]1C=CO[C@@]2(C)Oc3c(C)c(O)c4c(O)c(c5c(c4c3C2=O)NC2(CCN(CC(C)C)CC2)N=5)=NC(=O)C(C)=CC=C[C@H](C)[C@H](O)[C@@H](C)[C@@H](O)[C@@H](C)[C@H](OC(C)=O)[C@@H]1C", "pEC50": 4.58}
{"molecule": "OCCN1CCN(CCCN2c3ccccc3Sc3ccc(Cl)cc32)CC1", "pEC50": 4.90}

Ask: # input molecule: Cc1ccc(-c2csc(N=C(N)N)n2)c(C)c1 ; wanted: its pEC50
Reply: 4.57

Ask: Can you handle O=C(CSc1ccc(Cl)cc1)c1ccco1 next?
Reply: > 7.00

Ask: Lookup COc1cccc(/C=N/NC(=O)CNC(=O)COc2cccc(C)c2)c1O
Reply: 5.02

----------
System: THP-1 viability, CellTiter-Glo luminescence, 72 h
Assay: PubChem AID 2252
This listing pairs molecules with measured pEC50.
Interpret pEC50 as the negative base-10 log of the concentration measured in mol/L.

A selection of reference data follows.
{"molecule": "CCCCOc1ccc(NC2=NC3(CCCCC3)N=C(N)N2)cc1", "study-system": "THP-1 viability, CellTiter-Glo luminescence, 72 h", "pEC50": 5.14}
{"molecule": "Cc1ccc(N2C(N)=C(C#N)C(c3cccnc3)C3=C2CC(C)(C)CC3=O)cc1 (stereo unspecified)", "study-system": "THP-1 viability, CellTiter-Glo luminescence, 72 h", "pEC50": 4.48}
{"molecule": "Cn1c(SCC(=O)N/N=C/c2ccc([N+](=O)[O-])s2)nnc1-c1ccc(Cl)cc1", "study-system": "THP-1 viability, CellTiter-Glo luminescence, 72 h", "pEC50": 5.11}
{"molecule": "COc1ccc(C(=O)N/N=C/c2sc3ccccc3c2O)cc1", "study-system": "THP-1 viability, CellTiter-Glo luminescence, 72 h", "pEC50": 5.47}
{"molecule": "CN1CCN(c2ccccc2NC(=O)c2sc3ccccc3c2Cl)CC1", "study-system": "THP-1 viability, CellTiter-Glo luminescence, 72 h", "pEC50": 4.60}

Ask: Which pEC50 reading was recorded for the molecule CC(C)(c1ccccc1)c1ccc(OCCCNCCO)cc1 ?
Reply: 4.78

----------
Tested on: THP-1 viability, CellTiter-Glo luminescence, 72 h
Experiment: PubChem AID 2252
metric-name: EC50

Ask: Form field: reported EC50 of CS(=O)(=O)c1ccc2nc(NC(=O)c3ccc(Cl)nc3)sc2c1
Reply: 46.2 µM

Ask: Same question, COc1ccc(NC(=O)CC2Sc3ncnn3C2=O)cc1 (stereo unspecified) this time
Reply: 46.5 µM

Ask: Please give the result for O=C(N/N=C/c1cc(Br)ccc1O)c1ccncc1 too.
Reply: 5.06 µM

Ask: Then this molecule: Cn1c(CCN2CCN(c3ccccn3)CC2)nc2cc(NC(=O)COc3ccccc3)ccc21
Reply: 22.1 µM

Ask: Same thing, different molecule: O=C(O)c1cn(C2CC2)c2cc(N3CCN(S(=O)(=O)c4ccc5c(c4)OCCO5)CC3)c(F)cc2c1=O
Reply: < 0.1 µM
